Hello, the source for this data is the supplement of paper PMC13380429, in case you need it.

# System: Vero E6 infected with SARS-CoV-2
# TEST: inhibition of SARS-CoV-2 cytopathic effect; higher = more antiviral protection, active = above 15
# CONDITION NOTES: 833.33 nM; 48 h
Recorded measurements of inhibition of SARS-CoV-2 cytopathic effect, one per entry
MEASUREMENT LABEL: inhibition of SARS-CoV-2 cytopathic effect (%)

COMPOUND	RECORDED RESULT
CN(C)Cc1cccc(N=C(c2ccccc2)c2c(O)[nH]c3cc(C(=O)N(C)C)ccc23)c1	-0.95
Cc1cc(C(C)(C)C)c(O)c(C)c1CC1=NCCN1	1.64
O=C(O)c1cc2occc2[nH]1	-2.97
CC1(C)N=C(N)N=C(N)N1OCCCOc1cc(Cl)c(Cl)cc1Cl	0.74
CCCCCCCCCCCCCCCCCCN(CCCCCCCCCCCCCCCCCC)CCCN(CCO)CCO	-5.17
CCN(CC)CCN[C@@H](C(=O)OCCC(C)C)c1ccccc1 [camylofine-chlorhydrate]	0.17
S=P(N1CC1)(N1CC1)N1CC1	-0.47
CN(C)C(=O)Oc1ccc[n+](C)c1	-2.1
CSc1ccc2c(c1)N(CCC1CCCCN1C)c1ccccc1S2 (stereo not drawn)	1.05
CCC(=O)N1CCOc2c(cc(-c3ccc(OC)c(OC)c3)cc2OC[C@H]2CCCN(C)C2)C1	1.75
O=C(O)c1ccc(-n2nc(-c3ccccc3O)nc2-c2ccccc2O)cc1	-1.58
CCc1cc(/C(C)=N/OCc2ccc(C3CCCCC3)c(C(F)(F)F)c2)ccc1CN1CC(C(=O)O)C1	-0.18
N=C(N)c1cc2ccc(OC(=O)c3cccs3)cc2s1	-1.57
CCOc1cc2ncc(C#N)c(Nc3ccc(OCc4ccccn4)c(Cl)c3)c2cc1NC(=O)/C=C/CN(C)C	-0.85
Cc1ccnc2c1CCCC2C(N)=S (stereo not drawn) [isotiquimide]	1.85
CC(C)(S)C(N)C(=O)O (stereo in doubt) [penicillamine-(racemic)]	-1.03
NCC1(CC(=O)O)CCCCC1	0.15
CSCC1CN(/N=C/c2ccc([N+](=O)[O-])o2)C(=O)O1 (stereo not drawn)	1.93
CCCCCNCC(N)=O [milacemide]	2.58
O=C(c1c2ccccc2cc2ccccc12)N1CCC(N2CCC[C@@H](C(=O)N3CCOCC3)C2)CC1	-1.35
NC(=O)C[S+]([O-])C(c1ccccc1)c1ccccc1 (stereo not drawn)	-1.01
CCNC(=O)C#Cc1ccc2c(C(=Nc3ccc(CN(C)C)cc3)c3ccccc3)c(O)[nH]c2c1	-15.2
CCOc1ccccc1-n1c(C(C)N2CCN(C(=O)COc3ccc(Cl)cc3)CC2)nc2ccccc2c1=O (stereo not drawn)	-2.74
CC(C)C1=C2[C@H]3CC[C@@H]4[C@@]5(C)CC[C@H](OC(=O)CC(C)(C)C(=O)O)C(C)(C)[C@@H]5CC[C@@]4(C)[C@]3(C)CC[C@@]2([C@@H](O)CN(CCN(C)C)Cc2ccc(Cl)cc2)CC1=O	0.73
NCCc1ccc(O)c(O)c1	0.38
CC(=O)Nc1cccc2c1c(Sc1ccc(Cl)cc1)c(C)n2CC(=O)O	-0.59
COC(=O)CC[C@@H]1N=C(c2ccccn2)c2cc(Br)ccc2-n2c(C)cnc21	0.51
Cc1cccc(/C=N/Nc2cc(N3CCOCC3)nc(OCCc3ccccn3)n2)c1	20.4
Cc1cc(O)cc(C)c1Cl	-0.83
O=C(C(c1ccccc1)c1ccccc1)N1CCN(CC(O)COc2cccc3ncccc23)CC1 (stereo not drawn)	-0.87
CCOC(=O)Nc1ccc2c(c1)N(C(=O)CN(CC)CC)c1ccccc1CC2	0.29
N#Cc1cn([C@@H]2O[C@H](CO)[C@@H](O)[C@H]2O)c2ncnc(N)c12	-0.02
CC[N+](C)(CC)CCOC(=O)C(O)(c1ccccc1)C1CCCCC1 (stereo not drawn)	0.58
Cc1cccc(CN2CCN(C(c3ccccc3)c3ccc(Cl)cc3)CC2)c1 (stereo not drawn)	4.25
N[C@@H](CSC(c1ccccc1)(c1ccccc1)c1ccccc1)C(=O)O	-0.68
CN1C2C=C(c3sccc3Br)CC1CC2 (stereo not drawn)	-2.31
NC(=O)CN1CCCC1=O	-1.35
CN[C@@H](C)[C@H]1[C@H](O)C[C@@]2(C)[C@@H]3CC[C@H]4C(C)(C)[C@@H](NC)CC[C@@]45C[C@@]35CC[C@]12C	2.48

###

Recorded measurements of inhibition of SARS-CoV-2 cytopathic effect, one per entry
# Tested on: Vero E6 infected with SARS-CoV-2
# TEST: inhibition of SARS-CoV-2 cytopathic effect; higher = more antiviral protection, active = above 15
# CONDITION NOTES: 10000 nM; 48 h
MEASUREMENT LABEL: inhibition of SARS-CoV-2 cytopathic effect (%)

MOLECULE	MEASURED TARGET	RECORDED RESULT
N[C@@H](CSC(c1ccccc1)(c1ccccc1)c1ccccc1)C(=O)O [S-trityl-L-cysteine]	Vero E6 infected with SARS-CoV-2	-1.72
CN(C)CCC=C1c2ccccc2CCc2ccccc21 [amitriptyline]	Vero E6 infected with SARS-CoV-2	-2.45
CN1CCC(=C2c3ccccc3CCc3sccc32)CC1 [pizotifen]	Vero E6 infected with SARS-CoV-2	-3.38
Nc1nc2ccc(OC(F)(F)F)cc2s1 [riluzole]	Vero E6 infected with SARS-CoV-2	1.88
CC(=O)N(c1onc(C)c1C)S(=O)(=O)c1ccc(N)cc1 [sulfisoxazole-acetyl]	Vero E6 infected with SARS-CoV-2	0.37
Nc1nccc(-c2ccc3noc(-c4ccc(Cl)cc4)c3c2)n1 [PIM-1-Inhibitor-2]	Vero E6 infected with SARS-CoV-2	0.56
OCCC#Cc1nc(-c2ccc(F)cc2)c(-c2ccncc2)n1CCCc1ccccc1	Vero E6 infected with SARS-CoV-2	2.27
COc1cc(/C=C/C(=O)CC(=O)/C=C/c2ccc(O)c(OC)c2)ccc1O [curcumin]	Vero E6 infected with SARS-CoV-2	23.4
CC1=CC[C@@H](C(C)(C)O)C[C@@H]1O [sobrepin]	Vero E6 infected with SARS-CoV-2	-10.4
Cc1c(NC(=O)OC[C@@H]2COCCN2)cn2ncnc(Nc3ccc4c(cnn4Cc4cccc(F)c4)c3)c12	Vero E6 infected with SARS-CoV-2	-10.8
COC(=O)C1=C(C#N)NC(C)=C(C(=O)OC(C)C)C1c1cccc([N+](=O)[O-])c1 (configuration not stated) [nilvadipine]	Vero E6 infected with SARS-CoV-2	3.78
CCCCCCCCCCCCCCCc1cccc(OCC(=O)NCCO)c1	Vero E6 infected with SARS-CoV-2	-1.78
CC[C@H](C)C[C@H](C)CCCCCCCCC(=O)N[C@H]1C[C@@H](O)[C@@H](NCCN)NC(=O)[C@@H]2[C@@H](O)CCN2C(=O)[C@H]([C@H](O)CCN)NC(=O)[C@H]([C@H](O)[C@@H](O)c2ccc(O)cc2)NC(=O)[C@@H]2C[C@@H](O)CN2C(=O)[C@H]([C@@H](C)O)NC1=O [caspofungin]	Vero E6 infected with SARS-CoV-2	5.37
O=C(CCCN1CCC2(CC1)C(=O)N(Cc1cccc(F)c1)CN2c1ccccc1)c1ccc(F)cc1 [3'-fluorobenzylspiperone]	Vero E6 infected with SARS-CoV-2	71.7
CC(C)NC(=O)COc1cccc(-c2nc(Nc3ccc4[nH]ncc4c3)c3ccccc3n2)c1	Vero E6 infected with SARS-CoV-2	1.49
CSc1cc2c(cc1C(F)(F)F)N(C(=O)Nc1cccnc1)CC2	Vero E6 infected with SARS-CoV-2	0.95
CNCCCC1(c2ccccc2)OC(C)(C)c2ccccc21 (configuration not stated) [talopram]	Vero E6 infected with SARS-CoV-2	-3.52
O=C(Nc1ccc(-c2ccnc(Nc3ccc(N4CCOCC4)cc3)n2)cc1)C1CCCN1 (configuration not stated)	Vero E6 infected with SARS-CoV-2	8.93
N=C(N)c1cc2ccc(OC(=O)c3cccs3)cc2s1	Vero E6 infected with SARS-CoV-2	4.87
NCCNc1ccc(NCCN)c2c1C(=O)c1ccncc1C2=O [pixantrone]	Vero E6 infected with SARS-CoV-2	1.13
N=C1NC(=O)/C(=C/c2ccc(O)cc2)S1 [mirin]	Vero E6 infected with SARS-CoV-2	1.33
C[C@](N)(Cc1ccc(O)c(O)c1)C(=O)O [methyldopa]	Vero E6 infected with SARS-CoV-2	0.52
C[C@H]1CC[C@H](n2c3cnccc3c3cnc(Nc4ccc5c(n4)CCN(C(=O)CO)C5)nc32)CC1	Vero E6 infected with SARS-CoV-2	-5.03
CCNC1(C(N)=O)CCN(c2ncnc3c2nc(-c2ccccc2Cl)n3-c2ccc(Cl)cc2)CC1	Vero E6 infected with SARS-CoV-2	-0.26
c1ccc(OCc2ccc(CCCN3CCOCC3)cc2)cc1 [fomocaine]	Vero E6 infected with SARS-CoV-2	3.83
Brc1c(Br)c(Br)c2[nH]nnc2c1Br [4,5,6,7-tetrabromobenzotriazole]	Vero E6 infected with SARS-CoV-2	3.61
CN(C)C(=O)COC(=O)Cc1ccc(OC(=O)c2ccc(NC(=N)N)cc2)cc1 [camostat-mesilate]	Vero E6 infected with SARS-CoV-2	-2.24
Cc1cc(C)nc(NS(=O)(=O)c2ccc(N)cc2)n1 [sulfamethazine]	Vero E6 infected with SARS-CoV-2	-1.06
CCCCCCCCCCCCCCCCCCCCCCO [docosanol]	Vero E6 infected with SARS-CoV-2	-4.03
Clc1ccc(CSC(Cn2ccnc2)c2ccc(Cl)cc2Cl)cc1 (configuration not stated) [sulconazole]	Vero E6 infected with SARS-CoV-2	-0.46
O=c1[nH]c2ccc(Cl)cc2c(N[C@@H]2CN3CCC2CC3)c1-c1nc2ccccc2[nH]1	Vero E6 infected with SARS-CoV-2	-15.4
CCOC(=O)CCNc1cc(N2CCc3ccccc3CC2)nc(-c2ccccn2)n1	Vero E6 infected with SARS-CoV-2	-0.53
CN(CCOc1ccc(-c2ccc3c(c2)OCO3)cc1C(C)(C)C)CC(=O)O	Vero E6 infected with SARS-CoV-2	-1.31
N[C@@H](CCNCc1ccc(Cl)cc1)C(=O)N1CCCCC1	Vero E6 infected with SARS-CoV-2	-1.28
CCc1c2c(nc3ccc(O)cc13)-c1cc3c(c(=O)n1C2)COC(=O)[C@]3(O)CC	Vero E6 infected with SARS-CoV-2	-16.9
Cc1csc(S(=O)(=O)N(CC(C)C)c2cc3c(cc2OCc2ccc(C(=O)O)cc2)CCC3)n1	Vero E6 infected with SARS-CoV-2	2.78
CNC(=S)C1(c2ccccn2)CCCS1 (configuration not stated) [picartamide]	Vero E6 infected with SARS-CoV-2	6.75
